Values were extracted from patent US20250136581A1.

Test Target: human α2β3γ2 receptors (Homo sapiens (Human), UniProt P18507+P47869)
Method Notes: 3H-flunitrazepam competition binding, human α2β3γ2 GABAA receptor
Measurement Parameters: HEK293 cell membranes, 1 nM 3H-flunitrazepam; read-out: Ki α2
Quantity Kind: pKi
Please express pKi as -log10 of the molar concentration.

Past entries and their recorded results:
{"Smi": "Cn1nnc(-c2ccc(C(F)F)cc2)c1COc1ccc(N2CCNC(=O)C2)nn1", "pKi": 7.63}
{"Smi": "Cc1nnn(-c2ccc(C(F)F)cc2)c1COc1ccc(N2CCN[C@H](C(=O)O)C2)nn1", "pKi": 6.97}

Turning now to a further compound:
Q: # input compound: O=C1NCCN2CCN(c3ccc(OCc4c(Cl)nnn4-c4ccc(C(F)F)cc4)nn3)C[C@@H]12 ; wanted: its pKi
Ans: 7.19

* * *

Test Target: human α3β3γ2 receptors (Homo sapiens (Human), UniProt P18507+P34903)
Method Notes: 3H-flunitrazepam competition binding, human α3β3γ2 GABAA receptor
Measurement Parameters: HEK293 cell membranes, 1 nM 3H-flunitrazepam; read-out: Ki α3
Each entry below carries its recorded Ki.
Report the figure in nM without appending any unit label.

Past entries and their recorded results:
{"Smi": "Cc1nnn(-c2ccc(C(F)F)cc2)c1COc1ccc(N2CCN3CCNC(=O)[C@@H]3C2)nn1", "Test Target": "human α3β3γ2 receptors (Homo sapiens (Human), UniProt P18507+P34903)", "Quantity Kind": "Ki", "Val": 49.8}
{"Smi": "N#Cc1nnn(-c2ccc(C(F)F)cc2)c1COc1ccc(N2CCNC(=O)C2)nn1", "Test Target": "human α3β3γ2 receptors (Homo sapiens (Human), UniProt P18507+P34903)", "Quantity Kind": "Ki", "Val": 28.4}
{"Smi": "Cc1nnn(-c2ccc(C(F)F)cc2)c1COc1ccc(N2CC(=O)NC3(CC3)C2)nn1", "Test Target": "human α3β3γ2 receptors (Homo sapiens (Human), UniProt P18507+P34903)", "Quantity Kind": "Ki", "Val": 17}
{"Smi": "Cc1nnn(-c2ccc(C(F)F)cc2)c1COc1ccc(N2CCN[C@H](C(=O)O)C2)nn1", "Test Target": "human α3β3γ2 receptors (Homo sapiens (Human), UniProt P18507+P34903)", "Quantity Kind": "Ki", "Val": 135}
{"Smi": "Cc1nnn(-c2ccc(C(F)F)cc2)c1COc1ccc(N2CCN3CCNC(=O)[C@H]3C2)nn1", "Test Target": "human α3β3γ2 receptors (Homo sapiens (Human), UniProt P18507+P34903)", "Quantity Kind": "Ki", "Val": 27.5}
{"Smi": "O=C1NCCN2CCN(c3ccc(OCc4c(Cl)nnn4-c4ccc(C(F)F)cc4)nn3)C[C@@H]12", "Test Target": "human α3β3γ2 receptors (Homo sapiens (Human), UniProt P18507+P34903)", "Quantity Kind": "Ki", "Val": 44.6}

Turning now to a further molecule:
Q: # input molecule: Cc1nnn(-c2ccc(C(F)F)cc2)c1COc1ccc(N2CC(C(=O)NC(C)C)C2)nn1 ; wanted: its Ki
Ans: 68.7

* * *

Test Target: human α5β3γ2 receptors (α5-GABAA receptor) (Homo sapiens (Human), UniProt P18507+P31644)
Method Notes: 3H-flunitrazepam competition binding, human α5β3γ2 GABAA receptor
Measurement Parameters: HEK293 cell membranes, 1 nM 3H-flunitrazepam; read-out: α5-GABAAR Ki
Quantity Kind: Ki (nM)
Report the figure in nM without appending any unit label.

Past entries and their recorded results:
{"Compound": "Cc1nnn(-c2ccc(C(F)F)cc2)c1COc1ccc(N2CCNC(C)(C)C2=O)nn1 [Example 10]", "Ki [nM]": 14.4}
{"Compound": "Cc1nnn(-c2ccc(C(F)F)cc2)c1COc1ccc(N2CCN(CC(F)(F)F)C(=O)C2)nn1 [Example 62]", "Ki [nM]": 1.18}
{"Compound": "Cc1nnn(-c2ccc(C(F)F)cc2)c1COc1ccc(N2CCN3CC(c4cnn(C)c4)NC(=O)[C@@H]3C2)nn1 (single isomer, unassigned) [Example 210]", "Ki [nM]": 2.79}
{"Compound": "Cc1nnn(-c2ccc(C(F)F)cc2)c1COc1ccc(N2CC(C(=O)N3CCOCC3)C2)nn1 [Example 104]", "Ki [nM]": 1.77}
{"Compound": "Cc1nnn(-c2ccc(Cl)cc2)c1COc1ccc(N2CCN3CCNC(=O)[C@@H]3C2)nn1 [Example 163]", "Ki [nM]": 26.4}

Turning now to a further compound:
Q: # get_value(readout= Ki, system= human α5β3γ2 receptors (α5-GABAA receptor) (Homo sapiens (Human), UniProt P18507+P31644)) for Cc1nnn(-c2ccc(C(F)F)cc2)c1COc1ccc(N2CC(C(=O)NC(C)C)C2)nn1 [Example 155]
Ans: 5.39
